Measured values drawn from the supplement of paper PMC6757056 for this set.

Exercise: for every item that follows, state its recorded normalized RNA/DNA level without ligand (log10).
B1: library; a variant is named by its letters at N, in order (parent)
chain: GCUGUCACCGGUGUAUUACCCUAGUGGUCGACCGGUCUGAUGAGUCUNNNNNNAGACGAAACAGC

Variants of: B1
protocolSummary: normalized RNA/DNA level without ligand (relative to sTRSVctl = 100) (log10 (% of sTRSVctl)); ligand: hypoxanthine (xanthine aptamer); higher = less ribozyme self-cleavage, higher mRNA level
recordedConditions: HEK293T, reporter: mCherry (pCS4076), ligand present: no
Answers are plain numbers.

As a guide, the following entries are already answered.
>>> recordedmeasurement("UAGAAC")
1.81
>>> recordedmeasurement("UUUCUU")
1.95
>>> recordedmeasurement("CUACUU")
1.83
>>> recordedmeasurement("CAGAUA")
1.57

List reported normalized RNA/DNA level without ligand (log10) for each of these variants:
1. ACCUAA
2. GCGGCG
3. UUAUAG
4. GCUCAA
5. UGAUAU

Response:
1.87
1.51
1.67
1.71
1.78

List reported normalized RNA/DNA level without ligand (log10) for each of these variants:
1. UUCGUA
2. GGUCCU
3. ACUUAG
4. GUCACG
5. ACACUA
6. AAGGUC
7. UUGCAA

Response:
1: 1.87; 2: 1.96; 3: 1.52; 4: 1.54; 5: 1.8; 6: 1.89; 7: 1.79

List reported normalized RNA/DNA level without ligand (log10) for each of these variants:
1. CGUUCA
2. UGUCCC

Response:
[1.76, 1.93]

List reported normalized RNA/DNA level without ligand (log10) for each of these variants:
1. UUGACU
2. UGCCUU
3. CAGAGG
4. GCGACC
5. GUUGAC
6. CUGUAC
7. CUGCUG
8. GCAUAA

Response:
[1.9, 1.9, 1.21, 1.52, 1.72, 1.75, 1.82, 1.8]
